Tested on: ALK[L1196M] (Ba/F3) (Homo sapiens, UniProt Q9UM73, L1196M, cells depend on it)
Construct: IC50(nM) ALK[L1196M]; (Ba/F3); other: 72 hours, CellTiter-Glo; BaF3 [EMF4-AFK F1196M]; fused on or other part: Q9HC35 (Echinoderm microtubule-associated protein-like 4)
Sequence (Q9UM73 whole entry L1196M, the tested form may be a part): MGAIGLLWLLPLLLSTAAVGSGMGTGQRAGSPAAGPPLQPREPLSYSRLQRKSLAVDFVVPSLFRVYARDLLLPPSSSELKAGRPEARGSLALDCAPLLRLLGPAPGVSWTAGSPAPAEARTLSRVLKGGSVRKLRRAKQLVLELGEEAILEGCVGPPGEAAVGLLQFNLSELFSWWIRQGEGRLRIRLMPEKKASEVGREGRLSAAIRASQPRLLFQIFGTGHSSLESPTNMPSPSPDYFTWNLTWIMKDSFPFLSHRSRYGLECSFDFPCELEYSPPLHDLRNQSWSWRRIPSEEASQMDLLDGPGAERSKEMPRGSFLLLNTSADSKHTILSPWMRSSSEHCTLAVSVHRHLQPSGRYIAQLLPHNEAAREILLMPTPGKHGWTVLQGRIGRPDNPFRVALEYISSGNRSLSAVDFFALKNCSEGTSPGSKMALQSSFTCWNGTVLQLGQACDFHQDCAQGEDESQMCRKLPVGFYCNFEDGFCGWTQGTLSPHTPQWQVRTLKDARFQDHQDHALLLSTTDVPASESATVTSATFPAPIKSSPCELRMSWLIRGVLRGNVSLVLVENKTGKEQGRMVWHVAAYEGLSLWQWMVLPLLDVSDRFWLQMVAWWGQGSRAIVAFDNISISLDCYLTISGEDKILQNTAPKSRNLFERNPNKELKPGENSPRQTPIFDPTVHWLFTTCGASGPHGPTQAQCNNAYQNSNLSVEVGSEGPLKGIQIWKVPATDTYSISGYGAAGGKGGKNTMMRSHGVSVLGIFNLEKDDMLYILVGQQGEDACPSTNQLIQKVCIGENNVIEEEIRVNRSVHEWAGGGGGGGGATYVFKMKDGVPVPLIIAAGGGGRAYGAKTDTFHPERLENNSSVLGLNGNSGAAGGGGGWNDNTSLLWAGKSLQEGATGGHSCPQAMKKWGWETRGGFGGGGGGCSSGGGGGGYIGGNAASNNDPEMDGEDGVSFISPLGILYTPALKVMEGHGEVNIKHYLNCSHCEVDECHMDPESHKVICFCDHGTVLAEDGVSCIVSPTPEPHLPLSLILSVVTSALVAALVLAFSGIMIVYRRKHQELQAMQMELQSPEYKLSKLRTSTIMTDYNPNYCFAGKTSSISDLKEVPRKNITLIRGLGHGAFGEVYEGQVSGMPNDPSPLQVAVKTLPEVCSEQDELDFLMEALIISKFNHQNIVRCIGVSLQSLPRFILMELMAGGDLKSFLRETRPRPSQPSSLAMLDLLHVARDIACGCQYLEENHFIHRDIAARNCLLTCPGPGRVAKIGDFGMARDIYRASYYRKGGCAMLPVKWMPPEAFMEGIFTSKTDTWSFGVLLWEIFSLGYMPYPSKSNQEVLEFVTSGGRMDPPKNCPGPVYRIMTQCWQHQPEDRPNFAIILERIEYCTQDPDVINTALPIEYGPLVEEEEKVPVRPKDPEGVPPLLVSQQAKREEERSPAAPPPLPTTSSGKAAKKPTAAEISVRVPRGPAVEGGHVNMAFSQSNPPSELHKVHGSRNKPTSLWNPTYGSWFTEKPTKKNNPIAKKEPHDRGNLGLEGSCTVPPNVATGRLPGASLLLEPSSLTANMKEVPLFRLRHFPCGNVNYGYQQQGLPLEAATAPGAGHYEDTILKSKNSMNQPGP
Measurement notes: Cytotoxicity test (CellTiter-Glo), BaF3 EML4-ALK L1196M
Type: cell-based
Measurement context: 72 hours, CellTiter-Glo; read-out: IC50(nM) ALK[L1196M] (Ba/F3)
Measured quantity: GI50

Past entries and their recorded results:
- Compound: "CNC(C)c1ccc(Nc2ncc(Cl)c(Nc3ccccc3P(C)(C)=O)n2)c(OC)c1 (stereo not shown)"
  Tested on: "ALK[L1196M] (Ba/F3) (Homo sapiens, UniProt Q9UM73, L1196M, cells depend on it)"
  Measured quantity: "GI50"
  Value observed: "200 to 1000 nM"
- Compound: "COc1cc(CCN2CCOCC2)ccc1Nc1ncc(Cl)c(Nc2ccccc2P(C)(C)=O)n1"
  Tested on: "ALK[L1196M] (Ba/F3) (Homo sapiens, UniProt Q9UM73, L1196M, cells depend on it)"
  Measured quantity: "GI50"
  Value observed: "100 to 200 nM"
- Compound: "COc1cc(C(C)(C)CN)ccc1Nc1ncc(Cl)c(Nc2ccccc2P(C)(C)=O)n1"
  Tested on: "ALK[L1196M] (Ba/F3) (Homo sapiens, UniProt Q9UM73, L1196M, cells depend on it)"
  Measured quantity: "GI50"
  Value observed: "100 to 200 nM"

Below: the item to evaluate.
Entry "COc1cc(C(C)(C)N(C)C)ccc1Nc1ncc(Cl)c(Nc2ccccc2P(C)(C)=O)n1" needs its GI50 filled in; supply it.
50 to 100 nM

* * *

Measurement notes: Metabolic stability in human liver microsomes
Type: in vitro ADME
Measurement context: pH 7.4, 1 μM compound, 0.5 mg/mL protein, read-out: t1/2 (min), Human liver microsome experiment
Assignment: determine reported half-life at 1 μM for the given molecules.
Give bare numbers, in min.

Past entries and their recorded results:
- Molecule: "COc1cc(C(C)(C)N)ccc1Nc1ncc(Cl)c(Nc2ccccc2P(C)(C)=O)n1 [Example 13]"
  half-life at 1 μM (min): 119
- Molecule: "COc1cc(CCN2CCCCC2)ccc1Nc1ncc(Cl)c(Nc2ccccc2P(C)(C)=O)n1 [Example 4]"
  half-life at 1 μM (min): 51.9
- Molecule: "COc1cc(C(C)CN(C)C)ccc1Nc1ncc(Cl)c(Nc2ccccc2P(C)(C)=O)n1 (stereo not shown) [Example 17]"
  half-life at 1 μM (min): 74.3

Provide reported half-life at 1 μM for each item, in the same order as listed.
1. CNC(C)c1ccc(Nc2ncc(Cl)c(Nc3ccccc3P(C)(C)=O)n2)c(OC)c1 (stereo not shown) [Example 9]
2. COc1cc(C(C)CN)ccc1Nc1ncc(Cl)c(Nc2ccccc2P(C)(C)=O)n1 (stereo not shown) [Example 16]

123
64.6

Provide reported half-life at 1 μM for each item, in the same order as listed.
1. COc1cc(C(C)N)ccc1Nc1ncc(Cl)c(Nc2ccccc2P(C)(C)=O)n1 (stereo not shown) [Example 7]
2. CNCC(C)(C)c1ccc(Nc2ncc(Cl)c(Nc3ccccc3P(C)(C)=O)n2)c(OC)c1 [Example 11]

244
58.2

* * *

Assignment: determine reported microsomal CLint at 1 μM for the given compounds.
Measurement notes: Metabolic stability in rat liver microsomes
Format: in vitro ADME
Measurement context: SD, pH 7.4, 1 μM compound, 0.5 mg/mL protein, read-out: CLint (uL/min/mg), Rat liver microsome experiment
Answer shape: numeric part, then the unit.

Past entries and their recorded results:
- Compound: "COc1cc(C(C)(C)N(C)C)ccc1Nc1ncc(Cl)c(Nc2ccccc2P(C)(C)=O)n1 [Example 14]"
  Measured quantity: "microsomal CLint at 1 μM"
  Value observed: "33.4 µL/min/mg"
- Compound: "COc1cc(CCN)ccc1Nc1ncc(Cl)c(Nc2ccccc2P(C)(C)=O)n1 [Example 2]"
  Measured quantity: "microsomal CLint at 1 μM"
  Value observed: "8.4 µL/min/mg"
- Compound: "COc1cc(C(C)N)ccc1Nc1ncc(Cl)c(Nc2ccccc2P(C)(C)=O)n1 (stereo not shown) [Example 7]"
  Measured quantity: "microsomal CLint at 1 μM"
  Value observed: "4.1 µL/min/mg"

Provide reported microsomal CLint at 1 μM for each item, in the same order as listed.
1. COc1cc(CCN2CCCCC2)ccc1Nc1ncc(Cl)c(Nc2ccccc2P(C)(C)=O)n1 [Example 4]
2. COc1cc(C(C)CN)ccc1Nc1ncc(Cl)c(Nc2ccccc2P(C)(C)=O)n1 (stereo not shown) [Example 16]
3. COc1cc(CCN2CCOCC2)ccc1Nc1ncc(Cl)c(Nc2ccccc2P(C)(C)=O)n1 [Example 6]
4. CNCC(C)(C)c1ccc(Nc2ncc(Cl)c(Nc3ccccc3P(C)(C)=O)n2)c(OC)c1 [Example 11]
5. CNCCc1cc(OC)c(Nc2ncc(Cl)c(Nc3ccccc3P(C)(C)=O)n2)cc1C [Example 21]
6. COc1cc(C(C)CN(C)C)ccc1Nc1ncc(Cl)c(Nc2ccccc2P(C)(C)=O)n1 (stereo not shown) [Example 17]

["34.7 µL/min/mg", "11.7 µL/min/mg", "85.1 µL/min/mg", "7.2 µL/min/mg", "7.2 µL/min/mg", "29.7 µL/min/mg"]

Provide reported microsomal CLint at 1 μM for each item, in the same order as listed.
1. COc1cc(C(C)(C)CN(C)C)ccc1Nc1ncc(Cl)c(Nc2ccccc2P(C)(C)=O)n1 [Example 12]
2. COc1cc(C(C)(C)CN)ccc1Nc1ncc(Cl)c(Nc2ccccc2P(C)(C)=O)n1 [Example 10]
3. COc1cc(C(C)N(C)C)ccc1Nc1ncc(Cl)c(Nc2ccccc2P(C)(C)=O)n1 (stereo not shown) [Example 8]
4. COc1cc(CCN(C)C)c(C)cc1Nc1ncc(Cl)c(Nc2ccccc2P(C)(C)=O)n1 [Example 20]
5. COc1cc(CCN2CCN(C)CC2)ccc1Nc1ncc(Cl)c(Nc2ccccc2P(C)(C)=O)n1 [Example 5]

1. 86.8 µL/min/mg
2. 15.1 µL/min/mg
3. 28.8 µL/min/mg
4. 32.3 µL/min/mg
5. 35.9 µL/min/mg

Provide reported microsomal CLint at 1 μM for each item, in the same order as listed.
1. COc1cc(C(C)(C)N)ccc1Nc1ncc(Cl)c(Nc2ccccc2P(C)(C)=O)n1 [Example 13]
2. COc1cc(CN(C)C)ccc1Nc1ncc(Cl)c(Nc2ccccc2P(C)(C)=O)n1 [Example 1]
3. CNC(C)c1ccc(Nc2ncc(Cl)c(Nc3ccccc3P(C)(C)=O)n2)c(OC)c1 (stereo not shown) [Example 9]
4. CNC(C)(C)c1ccc(Nc2ncc(Cl)c(Nc3ccccc3P(C)(C)=O)n2)c(OC)c1 [Example 15]
5. COc1cc(CCN(C)C)ccc1Nc1ncc(Cl)c(Nc2ccccc2P(C)(C)=O)n1 [Example 3]

1: 9.1 µL/min/mg; 2: 43.4 µL/min/mg; 3: 9.9 µL/min/mg; 4: 17.6 µL/min/mg; 5: 50.4 µL/min/mg

* * *

Tested on: ALK[L1196M] (Ba/F3) (Homo sapiens, UniProt Q9UM73, L1196M, cells depend on it)
Construct: IC50(nM) ALK[L1196M]; (Ba/F3); other: 72 hours, CellTiter-Glo; BaF3 [EMF4-AFK F1196M]; fused on or other part: Q9HC35 (Echinoderm microtubule-associated protein-like 4)
Measurement notes: Cytotoxicity test (CellTiter-Glo), BaF3 EML4-ALK L1196M
Format: cell-based
Measurement context: 72 hours, CellTiter-Glo; read-out: IC50(nM) ALK[L1196M] (Ba/F3)
Assignment: determine reported GI50 for the given compounds.

- Compound: "CNCC(C)(C)c1ccc(Nc2ncc(Cl)c(Nc3ccccc3P(C)(C)=O)n2)c(OC)c1"
  Measured quantity: "GI50"
  Value observed: "50 to 100 nM"
- Compound: "COc1cc(C(C)CN(C)C)ccc1Nc1ncc(Cl)c(Nc2ccccc2P(C)(C)=O)n1 (stereo not drawn)"
  Measured quantity: "GI50"
  Value observed: "100 to 200 nM"
- Compound: "COc1cc(CCN(C)C)c(C)cc1Nc1ncc(Cl)c(Nc2ccccc2P(C)(C)=O)n1"
  Measured quantity: "GI50"
  Value observed: "25 to 50 nM"
- Compound: "COc1cc(CCN2CCCCC2)ccc1Nc1ncc(Cl)c(Nc2ccccc2P(C)(C)=O)n1"
  Measured quantity: "GI50"
  Value observed: "50 to 100 nM"
- Compound: "COc1cc(C(C)N)ccc1Nc1ncc(Cl)c(Nc2ccccc2P(C)(C)=O)n1 (stereo not drawn)"
  Measured quantity: "GI50"
  Value observed: "200 to 1000 nM"
- Compound: "COc1cc(CCN2CCN(C)CC2)ccc1Nc1ncc(Cl)c(Nc2ccccc2P(C)(C)=O)n1"
  Measured quantity: "GI50"
  Value observed: "25 to 50 nM"
- Compound: "COc1cc(C(C)(C)CN(C)C)ccc1Nc1ncc(Cl)c(Nc2ccccc2P(C)(C)=O)n1"
  Measured quantity: "GI50"
  Value observed: "50 to 100 nM"
- Compound: "CNCCc1cc(OC)c(Nc2ncc(Cl)c(Nc3ccccc3P(C)(C)=O)n2)cc1C"
  Measured quantity: "GI50"
  Value observed: "200 to 1000 nM"
- Compound: "COc1cc(CN(C)C)ccc1Nc1ncc(Cl)c(Nc2ccccc2P(C)(C)=O)n1"
  Measured quantity: "GI50"
  Value observed: "100 to 200 nM"
- Compound: "COc1cc(C(C)N(C)C)ccc1Nc1ncc(Cl)c(Nc2ccccc2P(C)(C)=O)n1 (stereo not drawn)"
  Measured quantity: "GI50"
  Value observed: "100 to 200 nM"

Provide reported GI50 for each item, in the same order as listed.
1. CNC(C)(C)c1ccc(Nc2ncc(Cl)c(Nc3ccccc3P(C)(C)=O)n2)c(OC)c1
2. COc1cc(CCN)ccc1Nc1ncc(Cl)c(Nc2ccccc2P(C)(C)=O)n1
3. COc1cc(C(C)(C)N)ccc1Nc1ncc(Cl)c(Nc2ccccc2P(C)(C)=O)n1
4. COc1cc(CCN(C)C)ccc1Nc1ncc(Cl)c(Nc2ccccc2P(C)(C)=O)n1

1: 100 to 200 nM; 2: 200 to 1000 nM; 3: 100 to 200 nM; 4: 100 to 200 nM

Entry COc1cc(C(C)CN)ccc1Nc1ncc(Cl)c(Nc2ccccc2P(C)(C)=O)n1 (stereo not drawn) needs its GI50 filled in; supply it.
200 to 1000 nM

Cited source for all entries: patent US11254696B2
